biological target: Alpha-2A adrenergic receptor (Homo sapiens); format: functional, cell-based; also: assay procedure not described here
Sequence (P08913 whole entry): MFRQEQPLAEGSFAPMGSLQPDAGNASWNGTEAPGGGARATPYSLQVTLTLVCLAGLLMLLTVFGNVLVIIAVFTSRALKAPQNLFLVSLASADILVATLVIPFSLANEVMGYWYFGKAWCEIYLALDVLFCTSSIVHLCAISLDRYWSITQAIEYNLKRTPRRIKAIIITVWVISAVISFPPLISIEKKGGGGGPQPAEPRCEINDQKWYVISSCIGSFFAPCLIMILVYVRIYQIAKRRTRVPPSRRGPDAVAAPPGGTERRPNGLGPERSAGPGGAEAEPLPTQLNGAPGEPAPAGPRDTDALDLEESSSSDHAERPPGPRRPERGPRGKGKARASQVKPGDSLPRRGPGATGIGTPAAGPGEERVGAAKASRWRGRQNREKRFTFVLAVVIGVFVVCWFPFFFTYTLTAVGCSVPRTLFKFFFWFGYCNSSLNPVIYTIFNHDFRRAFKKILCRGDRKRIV
Property label: AC50

Some solved entries appear below for comparison.
>  <Compound>
CCCN(CCC)CCc1cccc2c1CC(=O)N2

>  <Test system>
Alpha-2A adrenergic receptor (Homo sapiens); also: assay procedure not described here

>  <Measured value>
12 µM

$$$$
>  <Compound>
CN(c1nccc(=O)[nH]1)C1CCN(c2nc3ccccc3n2Cc2ccc(F)cc2)CC1

>  <Test system>
Alpha-2A adrenergic receptor (Homo sapiens); also: assay procedure not described here

>  <Measured value>
23 µM

$$$$

Sure, the documented AC50 for CCC(C)(Oc1ccc(C2(c3ccc(OC(C)(CC)C(=O)O)cc3)CCCCC2)cc1)C(=O)O (configuration not stated) [CLINOFIBRATE] is > 30 µM

response.value for `CC(=O)S[C@@H]1CC2=CC(=O)CC[C@]2(C)[C@H]2CC[C@@]3(C)[C@@H](CC[C@@]34CCC(=O)O4)[C@H]12` (field: AC50) = > 30 µM

Reference source: ChEMBL document CHEMBL5291721
